All values here come from patent US20240116985A1.

- test_target: full-length beta-Catenin (Uniprot ID P35222) (Homo sapiens (Human)) (UniProt P35222)
- test_details: fluorescence polarization competition; full-length beta-catenin with 5FAM-TCF4(10-53) probe as competitor
Starred links: 1 amine or outer side, 2 acyl side, 3 side chain; linkers in the order of their positions; H or OH if unused. Positions of bridges follow the written chain, without caps; N, C: chain ends. Non-standard residues stand in square brackets, D forms with d. Primed or numbered codes have the meaning given here. *: point of attachment. PyrS2″ = (S)-3-amino-1-((pent-4-en-1-yloxy)carbonyl)pyrrolidine-3-carboxylic acid (stapling residue), C=CCCCOC(=O)N1CC[C@@](N[*:1])(C(=O)[*:2])C1; B5(4) = 2,2-bis(4-pentenyl)glycine = 2-amino-2-(pent-4-en-1-yl)hept-6-enoic acid (stitching residue), C=CCCCC(CCCC=C)(N[*:1])C(=O)[*:2]; TfeGA = (S)-2-amino-3-((carboxymethyl)(2,2,2-trifluoroethyl)amino)propanoic acid, O=C([C@H](CN(CC(=O)[*:3])CC(F)(F)F)N[*:1])[*:2]; PyrS2 = (S)-3-amino-1-((pent-4-en-1-yloxy)carbonyl)pyrrolidine-3-carboxylic acid, C=CCCCOC(=O)N1CC[C@@](N[*:1])(C(=O)[*:2])C1; B5(7) = 2-amino-2-(pent-4-en-1-yl)hept-6-enoic acid, two olefinic side chains, C=CCCCC(CCCC=C)(N[*:1])C(=O)[*:2]; Bta = N[C@@H](Cc1csc2ccccc12)C(=O)O; αAllylPro = C=CC[C@@]1(C(=O)O)CCCN1; tBuAla = CC(C)(C)C[C@H](N)C(=O)O; 3Thi = N[C@@H](Cc1ccsc1)C(=O)O; S8 = C=CCCCCCC[C@](C)(N)C(=O)O; Octanoyl = CCCCCCCC(=O)*
measured_parameter: pIC50
// pIC50 here means minus log10 of the molar concentration (mol/L)

Illustrative cases are given below, each with its answer.
| binder | pIC50 |
| --- | --- |
| Ac-[αAllylPro]D[tBuAla][B5(7)]D[TfeGA]AAFN[PyrS2][3Thi][Bta]H-NH2 (staple 1-4, 4-11) [I-770] | 8.30 |
| Ac-[αAllylPro]DL[B5(4)]DEAAFN[S8]F[Bta]-NH2 (staple 1-4, 4-11; also: earlier eluting HPLC peak (staple isomer)) [I-624] | 6.56 |
| Octanoyl-[αAllylPro]D[tBuAla][B5(4)]DDAAFS[PyrS2″]F[Bta]S-NH2 (staple 1-4, 4-11) [I-1355] | 6.67 |

Could you now look at the following binder, please?
Complete the entry with pIC50 for Ac-[αAllylPro]DL[B5(4)]DEAAFN[S8]F[Bta]-NH2 (staple 1-4, 4-11; also: later eluting HPLC peak (staple isomer)) [I-625]
6.92
